# System: LTB4 formation in rat peritoneal PMN leukocytes
# experiment notes: Rat Peritoneal Polymorphonuclear (PMN) Leukocyte Assay (inhibition of LTB4 formation)
# Assay type: cell-based
# condition notes: Leukocyte; rat peritoneal PMN; 10 μM A-23187; 2 min preincubation at 37° C.
result type: IC50 (µg/mL)

sample smiles: COc1cc2c(c3ccccc13)N(C)c1ccccc1S2
unit descriptor: µg/mL
IC50: 5000

1. CC(=O)Oc1cc2c(c3ccccc13)N(C)c1ccccc1S2
2. COc1cc2c(c3ccccc13)N(C(C)=O)c1ccccc1S2
Please choose the item with the lower IC50 value from this pair: 1 and 2 Kindly give the label for the entry you pick.
1

###

# Test system: LTB4 formation in rat peritoneal PMN leukocytes
# experiment notes: Rat Peritoneal Polymorphonuclear (PMN) Leukocyte Assay (inhibition of LTB4 formation)
# Assay type: cell-based
# condition notes: Leukocyte; rat peritoneal PMN; 10 μM A-23187; 2 min preincubation at 37° C.
Listed here: items and their measured IC50.

compound: CC(=O)N1c2ccccc2Sc2cc(O)c3ccccc3c21 [aromatic, Ac, H, S]
IC50: 1000 to 5000 µg/mL

Find the recorded IC50 belonging to CC(=O)Oc1cc2c(c3ccccc13)Nc1ccccc1S2 [aromatic, H, Ac, S, 5-acetoxy-12H-benzo[a]phenothiazine] and report it.
25 to 50 µg/mL

I'd like to know its IC50. The compound in question is Oc1cc2c(c3ccccc13)Nc1ccccc1S2 [aromatic, H, H, S, 5-hydroxy-12H-benzo[a]phenothiazine]
20 to 100 µg/mL
